The reported measurements were obtained from the supplement of paper PMC9170038.

Recorded apparent KD of K4 kissing-loop reporter for the following sequences
- System: K4 kissing-loop RNA reporter
- measurement_notes: apparent KD of K4 kissing-loop reporter; higher = weaker reporter binding
- stated_conditions: Eterna round: R107; input ligand: tryptophan 2.4 mM

residue_sequence | apparent KD of K4 kissing-loop reporter, nM
UGACUGGACUGAAGGAGCGCUAAACUCCUAGUGAUGUUAGGAUAACGAGACAAAGUCUCGAAGCAGGUAGGUCGCAGUCUAGUCU | 128
AACUGUCAAGGAACUUGCAACAAAGGUGAUACCAGCAUCGAAAGAUGCCCUUGGCAGCACCAACUUGCAGUGAUGUUGCAAGUAA [(T)'-(H)'-(T1)-(T2)-(H1)-(H2)_Design7] | 286
UGACUGGACUGAAGGAGCGGGCGAGACAAAGUCUCGAACUCGUAGUGAUGUUACGAAAUAACCCAGGUAGGUCGCAGUCUAGUCU | 74.9

====

- System: K4 kissing-loop RNA reporter
- measurement_notes: apparent KD of K4 kissing-loop reporter; higher = weaker reporter binding
- stated_conditions: Eterna round: R107; input ligand: FMN 200 uM
Respond with Condition met for apparent KD of K4 kissing-loop reporter values of 200 nM and above, Condition not met for values below.

residue_sequence | discrete_label
AAUUUAUUAACUGAUACCAGACUUUAAUUUAUAUAUAUGUCUAGUGAUGUUAAACAUAUUGUCCCUUGGCAGCAGUAUUUAUUAA [JR_SSTheophyB_Sub020] | Condition met
GGGAGUAGUGCGGCCGCCACUGUGAAAGUAGAAGAAUAUAGUGAUGUUAUAUAGGAUUAAAAGAAUAGGACCGGGCAUUAGAUUU [SSTRyptB.W] | Condition not met
AGCGACUCUUCGGAGUCGCGGCUAAGGGAUACCAGUGAUGUUGGUCACCCUUGGCAGCCCAGAAGCCAAGCCACCAAAGGUGGCA [Omei KL Theo A Exc A v5] | Condition not met
GUUACGCAUGGAAGGAGCGCGAUUAAAUUUAGUGAGUGAUGUUCACAAAAUAAAACUAAAACGCAGGUAGGUCGCCAUGUGUAAC [Ex Arginine B K4 2] | Condition not met
UGACAUUGCUCAGAUACCAGACAAGAGGAUCACCCUUGUGCCAAACGUACAAUAAUAAUUGUCCCUUGGCAGCUGAGCAAUGUCU [TheoBX 14] | Condition not met
AAGUGAUGUUGUAGUGAUGUUGUGAUGUUGCAGGAUAUAUAGUGAUGUAGAAGGGUAAGUACUGAUUUUUUUUGUGAGUGAUGUU [bbgvzrmullin] | Condition not met

====

- System: MS2 coat protein
- measurement_notes: apparent KD of MS2 coat protein; designed switch direction (-1 OFF switch, 1 ON switch): -1; higher = weaker reporter binding
- stated_conditions: Eterna round: R95; input ligand: none

residue_sequence | apparent KD of MS2 coat protein
UUGAGCAGACGGAGAUCCAACAUGAGGAUCACCCAUGUCUCAAAAGCUUUUUGCUCAUCUUAUCGUACCUUGGUGCU [Mat - Sensor v3 - turn-off var 1 - JL Mod - D15] (puzzle: Sensor v3, turn-off variant 1) | 302 nM
UAAUACAUCUAUGGGAGUAACAUGAGGAUCACCCAUGUAUGUCUUGUUUUUUGUUCGUCAAAGACUUUCUGAUCAGU [JR_SV3TOV1_Sub030] (puzzle: Sensor v3, turn-off variant 1) | 83.2 nM
GGUUGGCGAGGAUAUACAUGAGGAUCACCCAUGUGAGAAGAAAAAGUGAGGAAGAAAAGUAGAAGGCGCUGACG [Mat - Exclusion 3 - Mod of Salish D1] (puzzle: Exclusion 3) | 81.5 nM
CCUCGUAACUAGGAUAUCCGAAAUAAGCGAGGAGGAGAAGGAGUUACAUGAGGAUCACCCAUGUGAUAUAAAGA [Orisxe] (puzzle: Exclusion 6) | 17.4 nM
UUUUAACAUGAGGAUCACCCAUGUGAGGAUAUCGAAAUUUAUAUUUAUAUUAAUAAAACGAGAAGGCACAUUUU [JMF 75] (puzzle: Exclusion 1) | 87.4 nM
AAUAAUACAGGAUAUACAGUUUAUUACAUGAGGAUCACCCAUGUUCUUCAAUGUAUAUAAGUAGAAGGGUAAGGAA [EX-5 Malc#1] (puzzle: Exclusion 5) | 24.3 nM
AAACCCUGAGGAUAUACAUAACAACAAAUCCUCACGUGCCAACAUGAGGAUCACCCAUGUAGAAGGCAGGCCCA [Bigegedi] (puzzle: Exclusion 2) | 15.3 nM
GAAAAGGUAGGAUAUACGUAAAAAAAGGGUAGAAAAAAAACACAUGAGGAUCACCCAUGUAGAAGGACCAAAAG [salish99_ex2_r3_087] (puzzle: Exclusion 2) | 20.6 nM
UGUUGUUGUUUCCGUUCUUACAUGAGGAUCACCCAUGUUUCUUGUCGUGCUCGCGUUGCUCGUCAGACUACCUGUUG [salish99_TOv1_r3_065] (puzzle: Sensor v3, turn-off variant 1) | 151 nM
AAUUAAACAUAGGAUAUCGAAUUUAUUAUUUAACGAGAAGGAUGAACAUGAGGAUCACCCAUGUGGUAUCAUGG [Mat - Exclusion 6 - JL Mod - D23] (puzzle: Exclusion 6) | 213 nM

====

Recorded apparent KD of MS2 coat protein for the following sequences
- Tested on: MS2 coat protein
- measurement_notes: apparent KD of MS2 coat protein; designed switch direction (-1 OFF switch, 1 ON switch): -1; higher = weaker reporter binding
- stated_conditions: input ligand: microRNA oligo, concentration not stated

residue_sequence | apparent KD of MS2 coat protein / nM
UUGUUAUAUGUAGGAUAUGCGUGUUAUUAUUAGGCAGAAGGACAUGAGGAUCACCCAUGUAUGUUGUUGUUAUAUAUUAUAUAU [Title] (Eterna round: R96, puzzle: Exclusion NG 1) | 17.8
GGGCUGCGACACAGCCCAACAAAACAUGAGGAUCACCCAUGUCAGGAUAUACCGAUGCAGCAUCUGUAGAAGGGACAGAUCCAA [Usorxe] (Eterna round: R96, puzzle: Exclusion NG 3) | 88.1
AUGUUACUCUGAGGAUAUUGUUUAUUCUUCUCACAUGAGGAUCACCCAUGUUUCCGUGUUUACCGCAAGAAGGCAGUUUUGUUU [JR_ExcNG2_Sub028] (Eterna round: R96, puzzle: Exclusion NG 2) | 29

====

- Tested on: K4 kissing-loop RNA reporter;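 also: bound reporter read as fluorescence of individual clusters on recovered sequencing chips by microscopy, with normalized cluster intensities fitted with a binding model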
- measurement_notes: apparent KD of K4 kissing-loop reporter; higher = weaker reporter binding
- stated_conditions: Eterna round: R107; input ligand: theophylline 20 uM

residue_sequence | unit | apparent KD of K4 kissing-loop reporter
GUGCAAAGCACCGGCACGAGCAGCCUAAAGGAGGAUAUGACGAAAGUCAGAAGGCCUAGUGAUGUUAGGCCUUGCUUGAGUCGAA [Omei KL FMN A Exc B v1] | nM | 183
UAAUAAAUUCCAGCGAUAUCGCUCUUCGAAGGAGCGGACGAAAGUCCAGGUAGGUCGCGAAGAGUGAUGUUCUUUGCGGCGCUGG [Omei KL Arginine A Exc A v4] | nM | 320
AAUCAAUACAGAAGGAGCGUGACAAUUACUAUUGAAUUAGGUGCUAGUGAUGUUAGCAUUACACAGGUAGGUCGCUGUACAUUUA [JR_SSArginiB_Sub011] | nM | 89
UGACUGGAUGGAAGGAGCGCUAAACUCCUAGUGAUGUUAGGGAUAUGAGGCAAAGCCUCGAGGCAGGUAGGUCGCCAUCUAGUCU [FiskerMod 19 - Jieux - Same State - Arginine B] | nM | 142
AAAUUCUUUUUUUUAUAUAACAAUUCAGAAGGAGCGUGGUAGAACACAGGUAGGUCGCUGAAUAUAAGACUAGUGAUGUUAGUAA [JR_SSArginiA_Sub010] | nM | 214
AGAACUGUCUGAGAUACCAGCUAAGGAGUGAUGUUCCUAGCUCCACGAAAGUGGAGCCAUAGCCCUUGGCAGCUCAGACAGUUCA [Omei KL Theo B SS A v6] | nM | 584
GUACGCUCCCGAGUGAUGUUCGGUAAUCGCGAGGAUAUCGCUUUUGCGAGAAGGCGCGGAAUGAGGAAACUCGUUCUGAGUGUAC [FMN A 25] | nM | 212
AAUGAUCGUAUGGCGAGGUACUCGUGUUCGAAGGAUAUUAAUAGAAUAAGAAGGUCGAAAUCGUGUCUGGAAGUGAUGUUUCCAU [theeternabot_sameState_KL_FMN_A_32] | nM | 123
ACGACGGCAGCUCAGUGAUGUUGGGCAUUACGAGGACCGGUACGGCCGCCACUCGCUGCUUUGAUCCGUGGAUGAACCUCAGCAU [theeternabot_sameState_KL_Trp_A_13] | nM | 734
UGUCAUUGGUCGGCCGCCACUAAAAUAAAAGAGUGAUGUUCUUAAAAGACGGACAAAGUCUGUCAUAGGACCGGGACCGAUGACU [TrypBS 23 #SwitchBubble #StaticStem] | nM | 436
AUGCCUCUGGCUGAUACCAGUGAUGCAGGGUAUGAGACAGGGAGUGAUGUUCCCUGCAGCCACCCUUGGCAGCAGUUUAAGUUUG [Exclusion Theophylline B GF 20] | nM | 197
